biological target: E255V BCR-Abl (Homo sapiens, UniProt P00519, E255V); construct: the other entry of the earlier key: BCR (P11274, Breakpoint cluster region protein); test: Antiproliferative effect on Ba/F3 cells expressing E255V BCR-Abl; settings: Ba/F3 cells expressing E255V mutant
PROPERTY NAME: IC50 (µM)

P: Cc1cn(-c2cc(C(=O)Nc3ccc(C)c(NC(=O)n4ccc5c(Nc6cccc(C(N)=O)c6)ncnc54)c3)cc(C(F)(F)F)c2)cn1
Q: Cc1cn(-c2cc(C(=O)Nc3ccc(C)c(NC(=O)n4ccc5c(Nc6cccc(N(C)C)c6)ncnc54)c3)cc(C(F)(F)F)c2)cn1
Q. Pick the one with the larger IC50: P vs Q Bench note: the answer is the label of the chosen record.
A. Q
(Q: 0.22 µM, P: 0.031 µM)
